Hello, the source for this data is patent US20230382949A1, in case you need it.

Target: human Apelin receptor (Homo sapiens, UniProt P35414)
Test: cAMP accumulation assay (HTRF), functional agonism of human Apelin receptors
Format: cell-based
Details: pEC50, Human Apelin agonist cAMP assay; CHO cells stably expressing the human Apelin receptor, 3 uM forskolin
Description: cAMP functional assay. cAMP production was quantified using the Homogeneous Time-Resolved Fluorescence (HTRF) cAMP dynamic-2 assay (Cisbio, France).
Sequence (P35414 whole entry): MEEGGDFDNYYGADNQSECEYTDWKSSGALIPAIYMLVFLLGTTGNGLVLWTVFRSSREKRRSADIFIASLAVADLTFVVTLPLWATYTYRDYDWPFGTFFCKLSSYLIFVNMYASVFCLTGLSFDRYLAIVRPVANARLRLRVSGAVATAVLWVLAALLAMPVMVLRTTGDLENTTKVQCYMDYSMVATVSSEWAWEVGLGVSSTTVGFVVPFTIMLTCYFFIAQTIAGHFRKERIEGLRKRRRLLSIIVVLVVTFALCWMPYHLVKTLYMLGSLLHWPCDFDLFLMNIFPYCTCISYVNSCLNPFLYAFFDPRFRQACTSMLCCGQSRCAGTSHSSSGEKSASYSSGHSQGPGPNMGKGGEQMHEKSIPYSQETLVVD
Starred links: 1 amine or outer side, 2 acyl side, 3 side chain; linkers in the order of their positions; H or OH if unused. Non-standard residues stand in square brackets, D forms with d. Residues, ends and D or L forms follow the SMILES beside them. *: point of attachment. Ala(piperidin-4-yl) = O=C([C@H](CC1CCN([*:3])CC1)N[*:1])[*:2]; Malonyl(2,2-Me2,histaminyl) = CC(C)(C(=O)NCCc1cnc[nH]1)C(=O)*; dBip = N[C@H](Cc1ccc(-c2ccccc2)cc1)C(=O)O; Oic = O=C(O)[C@@H]1C[C@@H]2CCCC[C@@H]2N1; Nle = CCCC[C@H](N)C(=O)O
Metric name: pEC50
Numbers only, as −log10 of the molar value.

Compound	pEC50
CCCC[C@H](NC(=O)[C@@H]1C[C@@H]2CCCC[C@@H]2N1C(=O)CNC(=O)[C@H](CC1CCNCC1)NC(=O)[C@H](Cc1c[nH]cn1)NC(=O)[C@@H](C)NC(=O)[C@H](CC(C)C)NC(=O)[C@H](CCCNC(=N)N)NC(=O)[C@@H]1CCCN1C(=O)[C@H](CCCNC(=N)N)NC(=O)[C@H](CCC(N)=O)NC(=O)C(C)(C)C(=O)NCCc1cnc[nH]1)C(=O)N1CCC[C@H]1C(=O)N[C@H](Cc1ccc(-c2ccccc2)cc1)C(=O)O [Example 59] ({Malonyl(2,2-Me2,histaminyl)}-QRPRL[dA]H[Ala(piperidin-4-yl)]G[Oic][Nle]P[dBip]-OH)	7.00

-- ask API: value(readout=pEC50, system=human Apelin receptor (Homo sapiens, UniProt P35414)) for record CC(C)C[C@H](NC(=O)[C@@H](CCCNC(=N)N)NC(=O)C1C2CC2CN1C(=O)[C@H](CCCCNC(=N)N)NC(=O)[C@H](CCC(N)=O)NC(=O)[C@@H](CCCNC(=N)N)NC(=O)C(C)(C)C(=O)NCCc1c[nH]cn1)C(=O)NC(C)(C)C(=O)N[C@@H](Cc1c[nH]cn1)C(=O)N[C@@H](CC1CCNCC1)C(=O)NCC(=O)N1[C@H](C(=O)N[C@@H](Cc2ccc(Br)cc2)C(=O)N2CCC[C@H]2C(=O)N[C@H](Cc2ccc(-c3ccccc3)cc2)C(=O)O)C[C@@H]2CCCC[C@@H]21 (single isomer, unassigned) [37 Isomer 1]
-- reply 8.00

----------
Biological target: human Apelin receptor (Homo sapiens)
Construct: host or cells: CHO-K1 cells
Test: β-arrestin accumulation assay, functional agonism of human Apelin receptors
Assay type: cell-based
Sequence (P35414 whole entry): as above
Sequence (P32121 whole entry partner): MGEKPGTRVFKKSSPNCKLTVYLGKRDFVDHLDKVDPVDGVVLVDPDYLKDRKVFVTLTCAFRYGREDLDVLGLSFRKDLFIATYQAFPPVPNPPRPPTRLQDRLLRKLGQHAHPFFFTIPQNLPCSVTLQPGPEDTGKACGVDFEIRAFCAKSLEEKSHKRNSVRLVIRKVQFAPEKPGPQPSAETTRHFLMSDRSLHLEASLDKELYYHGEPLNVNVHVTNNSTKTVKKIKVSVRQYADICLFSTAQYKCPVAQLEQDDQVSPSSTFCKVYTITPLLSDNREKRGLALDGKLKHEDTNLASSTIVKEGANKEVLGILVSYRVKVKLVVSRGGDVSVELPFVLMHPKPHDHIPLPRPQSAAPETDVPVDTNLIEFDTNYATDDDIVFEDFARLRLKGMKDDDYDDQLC
pEC50: −log10 of the molar value. Starred links: 1 amine or outer side, 2 acyl side, 3 side chain; linkers in the order of their positions; H or OH if unused. Non-standard residues stand in square brackets, D forms with d. Residues, ends and D or L forms follow the SMILES beside them. *: point of attachment. Ala(piperidin-4-yl) = O=C([C@H](CC1CCN([*:3])CC1)N[*:1])[*:2]; dBip = N[C@H](Cc1ccc(-c2ccccc2)cc1)C(=O)O; Oic = O=C(O)[C@@H]1C[C@@H]2CCCC[C@@H]2N1; Phe(4-Br) = N[C@@H](Cc1ccc(Br)cc1)C(=O)O; X3 = CC(C)(C(=O)NCCc1ccccn1)C(=O)*; hArg = N=C(N)NCCCC[C@H](N)C(=O)O; Aib = CC(C)(N)C(=O)O
Metric name: pEC50

-- ask Given the compound CC(C)C[C@H](NC(=O)[C@@H](CCCNC(=N)N)NC(=O)[C@@H]1CCCN1C(=O)[C@H](CCCCNC(=N)N)NC(=O)[C@H](CCC(N)=O)NC(=O)C(C)(C)C(=O)NCCc1ccccn1)C(=O)NC(C)(C)C(=O)N[C@@H](Cc1c[nH]cn1)C(=O)N[C@@H](CC1CCNCC1)C(=O)NCC(=O)N1[C@H](C(=O)N[C@@H](Cc2ccc(Br)cc2)C(=O)N2CCC[C@H]2C(=O)N[C@H](Cc2ccc(-c3ccccc3)cc2)C(=O)O)C[C@@H]2CCCC[C@@H]21 [Example 46] (X3-Q[hArg]P[dR]L[Aib]H[Ala(piperidin-4-yl)]G[Oic][Phe(4-Br)]P[dBip]-OH) , what is its reported pEC50?
-- reply < 5.00
